- Assay type: in vivo, human (healthy men)
- test_conditions: male, human, plasma, po, 60 mg
measurement_label: Cmax (ng/mL)
Write the answer as a number in ng/mL, unit excluded.

For this compound ( CCN(CC)C(=O)[C@@]1(c2ccccc2)C[C@H]1CN ), measured Cmax is 179

----------
- Format: in vivo, human (healthy men)
- test_conditions: male, human, plasma, po, 60 mg
measurement_label: AUC(0-inf) (ng·h/mL)
Write the answer as a number in ng·h/mL, unit excluded.

For this molecule ( CCN(CC)C(=O)[C@@]1(c2ccccc2)C[C@H]1CN ), measured AUC(0-inf) is 2090

----------
- measurement_notes: Rat plasma PK and plasma metabolite profile after oral [14C]-levomilnacipran
- Format: in vivo, Sprague Dawley rats
- test_conditions: Sprague Dawley, rat, plasma, po, 50 mg/kg
measurement_label: AUC(0-inf)
Report the figure along with its unit, number first.

For this molecule ( CCN(CC)C(=O)[C@@]1(c2ccccc2)C[C@H]1CN ), measured AUC(0-inf) is 16600 ng·h/mL
